- experiment: Plasma pharmacokinetics after a single intraperitoneal dose
- Type: in vivo, male CD1 mice
- condition_parameters: male, CD1, mouse, plasma, intraperitoneal, 50 mg/kg, 50 mg/kg IP, 8 hr; read-out: Plasma Concentration, Mean
measurement_name: concentration at 8 hr

molecule COc1ccc(Cn2ccc3ccc(C(=O)NS(C)(=O)=O)cc32)cc1 , concentration at 8 hr observed: 90.1 µg/mL

###

- experiment: Blood pharmacokinetics after a single intraperitoneal dose
- Assay type: in vivo, male CD1 mice
- condition_parameters: male, CD1, mouse, in vivo; 52 mg/kg IP, blood, mean
- Method: The objective of this example was to investigate the blood pharmacokinetics of UPHH-123 in male CD1 mice following a single intraperitoneal dose administration. […] Blood samples (approximately 120 μL) were collected at pre-dose, 0.08, 0.25, 0.5, 1, 2, 4, 8 and 24 hr. […] All samples were processed for analysis by protein precipitation using acetonitrile (ACN) and analyzed with fit for purpose LC/MS/MS method (LLOQ: 10.04 ng/mL for UPHH-123 in blood). […]
measurement_name: Tmax (min)
Express the result in min but write the number alone.

molecule COc1ccc(Cn2ccc3ccc(C(=O)NO)cc32)cc1 , Tmax observed: 4.8
